- PROCEDURE TEXT: Dynamic solubility experiment at 37° C.
- Assay type: physicochemical
- STATED CONDITIONS: FaSSIF, 24 h
Where a name gives a salt, the structure may show the parent alone.
In this section we review reported S: solubility values for a set of compounds.
REPORTED PROPERTY: S: solubility

Cc1cnc(-c2cc(O[C@@H](C)[C@@H](C)O)cc(C(=O)N[C@H](C)c3cnc(C(F)(F)F)nc3)c2F)s1 [Crystalline form A of maleate] :: 7 µg/mL
Cc1cnc(-c2cc(O[C@@H](C)[C@@H](C)O)cc(C(=O)N[C@H](C)c3cnc(C(F)(F)F)nc3)c2F)s1 [Crystalline form A of hydrochloride] :: 14 µg/mL
Cc1cnc(-c2cc(O[C@@H](C)[C@@H](C)O)cc(C(=O)N[C@H](C)c3cnc(C(F)(F)F)nc3)c2F)s1 [Free base crystalline form A] :: 9 µg/mL
Cc1cnc(-c2cc(O[C@@H](C)[C@@H](C)O)cc(C(=O)N[C@H](C)c3cnc(C(F)(F)F)nc3)c2F)s1 [Crystalline form A of p-toluenesulfonate] :: 6 µg/mL
